Cited source: PubChem BioAssay (NCI)

Assay: NCI Yeast Anticancer Drug Screen. Data for the sgs1 mgt1 strain (AID 161);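 note: 0% = growth of cultures given vehicle only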
Conditions: S. cerevisiae sgs1 mgt1 strain, at 5.0 µM (retest, dose inferred, filed as 0.5), active compounds read high
The panel holds about 79,000 compounds, 15% with a hit somewhere; the sample as a whole holds those more often.
Measurement Type: growth inhibition (%)
Give bare numbers, in %.

Worked cases, growth inhibition given:
# Compound, growth inhibition, %
rows = [
    ("CC/C(=C\\c1ccccc1)[N+](=O)[O-]", 25),
    ("CCCCCN1C(=O)C2C(C1=O)C1(Cl)C(Cl)=C(Cl)C2(Cl)C1(Cl)Cl (configuration not stated)", 16),
    ("CC(C)(C)[Si](OC(=O)N(CCCl)CCCl)(c1ccccc1)c1ccccc1", 13),
    ("CN(CCCl)Cc1ccc(OCc2ccccc2)c(OCc2ccccc2)c1", 0),
    ("Sc1ccccc1.[Ag]", 49),
]

Could you report growth inhibition for every entry in the following list?
1. O=[N+]([O-])C=C([SH2+])[SH2+].O=[N+]([O-])C=C([SH2+])[SH2+].[Ni+2].c1ccc(C[P+](c2ccccc2)(c2ccccc2)c2ccccc2)cc1
2. [Cl][Sn]([c]1ccccc1)([c]1ccccc1)[c]1ccccc1
3. CCCCCCCCCCCCCC(=O)O[C@H]1CC[C@H](NC(=O)[C@H](OC)[C@H](O)[C@@H](O)[C@H](O)/C=C/C(C)C)C(=O)NC1

Ans.
1: 5; 2: 100; 3: -2
